Experiment: NCI Yeast Anticancer Drug Screen. Data for the rad50 strain (AID 155)
Conditions: S. cerevisiae rad50 strain growth inhibition; at 5.0 µM (retest, dose inferred, filed as 0.5)
The panel holds about 79,000 compounds, 15% with a hit somewhere; the sample as a whole holds those more often. Active and inactive are the calls of the source. No stated cut-off is given here; in the data, active means growth inhibition above about 70%; inactive means the rest.
Classes to choose from: active, inactive

Incoming: Per the records of this test, what outcome belongs to c1ccc2c(c1)OCC(CNCCNCC1COc3ccccc3O1)O2 (stereo unspecified) ?
Outgoing: inactive

Incoming: Per the records of this test, what outcome belongs to CC(=O)OC1CCCCCCCCCCC12OCCO2 (stereo unspecified) ?
Outgoing: inactive

Incoming: Per the records of this test, what outcome belongs to "COc1ccc2c(Cc3cccc([N+](=O)[O-])c3)cncc2c1O" ?
Outgoing: inactive

Incoming: Per the records of this test, what outcome belongs to Cc1cccc2c1Oc1cc(Cl)ccc1C2NC(=O)CCN1CCN(CCO)CC1 (stereo unspecified) ?
Outgoing: inactive

Incoming: Per the records of this test, what outcome belongs to "COc1ccc(NC(=O)Nc2ccc(Cl)cc2)nn1" ?
Outgoing: inactive

Incoming: Per the records of this test, what outcome belongs to CC1CCC(C(C)(C)c2ccc(O)cc2)CC1 (stereo unspecified) ?
Outgoing: inactive

Incoming: Per the records of this test, what outcome belongs to "CC[N+](C)(CC)CCC[n+]1c(-c2ccccc2)c2cc(N)ccc2c2ccc(N)cc21" ?
Outgoing: inactive

Incoming: Per the records of this test, what outcome belongs to "[Cl][Sn]([CH2][CH2][Sn]([Cl])([c]1ccccc1)[c]1ccccc1)([c]1ccccc1)[c]1ccccc1" ?
Outgoing: active

Incoming: Per the records of this test, what outcome belongs to CCCCCCCN(CCCCCCC)CC(O)Cc1cc2c(c3ccccc13)CCCC2 (stereo unspecified) ?
Outgoing: inactive

Incoming: Per the records of this test, what outcome belongs to CC(=O)SC1C(=O)N(C)C(SC(C)=O)C(=O)N1C (stereo unspecified) ?
Outgoing: inactive

Incoming: Per the records of this test, what outcome belongs to "O=C(O)CCC(=O)NNc1ccccc1" ?
Outgoing: inactive

Incoming: Per the records of this test, what outcome belongs to "O=C1CC2(CCCC2)C(=O)N1c1ccc(N2C(=O)CC3(CCCC3)C2=O)cc1" ?
Outgoing: inactive

Incoming: Per the records of this test, what outcome belongs to "O=C(CSc1nnc(Cc2ccccc2)o1)Nc1ccc(Cl)cc1[N+](=O)[O-]" ?
Outgoing: inactive

Incoming: Per the records of this test, what outcome belongs to N#Cc1ccccc1NC1OCC(O)C(O)C1O (stereo unspecified) ?
Outgoing: inactive

Incoming: Per the records of this test, what outcome belongs to COc1cc(OC)c(C(c2cc3c(cc2O)OCO3)N2CCOCC2)c(OC)c1 (stereo unspecified) ?
Outgoing: inactive

Incoming: Per the records of this test, what outcome belongs to CCN(CC)CCCC(C)Nc1cc(C)nc2c1ccc1c2ccc2c(NC(C)CCCN(CC)CC)cc(C)nc21 (stereo unspecified) ?
Outgoing: inactive
